Task for the reader: assign each of the following molecules its reported Bliss excess.
tested on: NCI-H1435 (Non-Small Cell Lung Carcinoma); assay: Bliss excess, mean over the matrix (fraction); higher = more synergy;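 also: after 72 h of two-drug dosing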
I'd appreciate a reply containing only the number, no unit.

Query :: If you can, please state the reported Bliss excess value of COc1cccc(OCCCN)c1-c1cc(Nc2cnc(C#N)cn2)n[nH]1 [Prexasertib] + Cc1cc2ncnn2cc1Nc1ncc2c(n1)n(C1CCOCC1)c(=O)n2C [AZD7648] (first compound max 1 µM, 7x7, partner max 10 µM) .
Result :: 0.0115

Query :: Give its Bliss excess value. Item: CN(C)CCCOc1ccc(-c2ccc3ncc4c(c3c2)n(C2CCOCC2)c(=O)n4C)cn1 [AZD0156] + CCN(CCO)CCCOc1ccc2c(Nc3cc(CC(=O)Nc4cccc(F)c4)[nH]n3)ncnc2c1 [AZD2811] (first compound max 1 µM, 7x7, partner max 1 µM)
Result :: -0.0219

Query :: Entry CN(CCO)CC[C@H](CSc1ccccc1)Nc1ccc(S(=O)(=O)NC(=O)c2ccc(N3CCC([C@@H](O)c4ccccc4-c4ccc(Cl)cc4)CC3)cc2)cc1S(=O)(=O)C(F)(F)F [AZD4320] + CS(=O)(=O)CCNCc1ccc(-c2ccc3ncnc(Nc4ccc(OCc5cccc(F)c5)c(Cl)c4)c3c2)o1 [Lapatinib] (first compound max 1 µM, 7x7, partner max 10 µM) : reported Bliss excess = ?
Result :: 0.0765
